Values from ChEMBL document CHEMBL1240467

Tested on: Staphylococcus aureus
Assay: Antibacterial activity against erythromycin-resistant Staphylococcus aureus PU-32 expressing erm(A) gene by broth microdilution method
Assay type: functional
Rule: measured MIC below 0.1 µg/mL gets condition met; anything equal to or greater than 0.1 µg/mL gets condition not met.

// known answers, use as guide
molecule	answer.label
CC[C@H]1OC(=O)[C@H](C)C(=O)[C@H](C)[C@@H](O[C@H]2O[C@H](C)C[C@H](N(C)C)[C@H]2O)[C@](C)(OC)C[C@@H](C)/C(=N\OC/C=C/c2cncnc2)[C@H](C)[C@@H]2OC(=O)O[C@]12C	condition met
CC[C@H]1OC(=O)[C@H](C)[C@@H](O[C@H]2C[C@@](C)(OC)[C@@H](O)[C@H](C)O2)[C@H](C)[C@@H](O[C@@H]2O[C@H](C)C[C@H](N(C)C)[C@H]2O)[C@](C)(OC)C[C@@H](C)C(=O)[C@H](C)[C@@H](O)[C@]1(C)O [CLARITHROMYCIN]	condition not met
CC[C@H]1OC(=O)[C@H](C)C(=O)[C@H](C)[C@@H](O[C@H]2O[C@H](C)C[C@H](N(C)C)[C@H]2O)[C@](C)(OC)C[C@@H](C)/C(=N\OC/C=C/c2cnc3ccccc3c2)[C@H](C)[C@@H]2OC(=O)O[C@]12C	condition met
CC[C@H]1OC(=O)[C@H](C)C(=O)[C@H](C)[C@@H](O[C@H]2O[C@H](C)C[C@H](N(C)C)[C@H]2O)[C@](C)(OC)C[C@@H](C)/C(=N\OC/C=C/c2ccc(-n3ccnc3)cc2)[C@H](C)[C@@H]2OC(=O)O[C@]12C	condition not met
CC[C@H]1OC(=O)[C@H](C)C(=O)[C@H](C)[C@@H](O[C@H]2O[C@H](C)C[C@H](N(C)C)[C@H]2O)[C@](C)(OC)C[C@@H](C)/C(=N\OC/C=C/c2ccc3ncccc3c2)[C@H](C)[C@@H]2OC(=O)O[C@]12C	condition met

Request: Below 0.1 µg/mL on MIC? Entry C=CCOC1[C@@H](C)C(=O)O[C@H](CC)[C@@](C)(O)[C@H](O)[C@@H](C)/C(=N/OC/C=C/c2cncnc2)[C@H](C)C[C@@](C)(OC)[C@H](O[C@H]2O[C@H](C)C[C@H](N(C)C)[C@H]2O)[C@H]1C (some centres not stated)
Response: condition not met

Request: Same again, this time with CC[C@H]1OC(=O)[C@H](C)[C@@H](O[C@H]2C[C@@](C)(OC)[C@@H](O)[C@H](C)O2)[C@H](C)[C@@H](O[C@@H]2O[C@H](C)C[C@H](N(C)C)[C@H]2O)[C@](C)(O)C[C@@H](C)CN(C)[C@H](C)[C@@H](O)[C@]1(C)O [AZITHROMYCIN]
Response: condition not met

====

For each of the compounds below, state its MIC.
Test system: Staphylococcus aureus
Assay: Antibacterial activity against erythromycin-resistant Staphylococcus aureus PU-19 expressing erm(A) gene by broth microdilution method
Type: functional

Would you mind listing MIC for each of the following compounds?
1. CC[C@H]1OC(=O)[C@H](C)[C@@H](O[C@H]2C[C@@](C)(OC)[C@@H](O)[C@H](C)O2)[C@H](C)[C@@H](O[C@@H]2O[C@H](C)C[C@H](N(C)C)[C@H]2O)[C@](C)(OC)C[C@@H](C)C(=O)[C@H](C)[C@@H](O)[C@]1(C)O [CLARITHROMYCIN]
2. CC[C@H]1OC(=O)[C@H](C)[C@@H](O[C@H]2C[C@@](C)(OC)[C@@H](O)[C@H](C)O2)[C@H](C)[C@@H](O[C@@H]2O[C@H](C)C[C@H](N(C)C)[C@H]2O)[C@](C)(O)C[C@@H](C)CN(C)[C@H](C)[C@@H](O)[C@]1(C)O [AZITHROMYCIN]
3. C=CCOC1[C@@H](C)C(=O)O[C@H](CC)[C@@](C)(O)[C@H](O)[C@@H](C)/C(=N/OC/C=C/c2cncnc2)[C@H](C)C[C@@](C)(OC)[C@H](O[C@H]2O[C@H](C)C[C@H](N(C)C)[C@H]2O)[C@H]1C (stereo partly drawn)

Response:
> 256 µg/mL
> 256 µg/mL
> 256 µg/mL
